Where these numbers come from: the nanobody polyreactivity screen of Harvey et al. (2022)

test: yeast display, Sf9 membrane polyspecificity reagent, FACS + sequencing; frameworks hold sequencing errors
Outcome measure: polyreactivity (PSR sort gate)

Solved entries:
QVQLVESGGGLVQAGGSLRLSCAASGIIFAFYAMGWYRQAPGKERELVATISKSGGRTYYADSVKGRFTISRDNAKNTVYLQMNSLKPEDTAVYYCAARIQYAFGADYYWGQGTQVTVSS :: low polyreactivity
QVQLVESGGGLVQAGGSLRLSCAASGRTFSRYAMGWYRQAPGKEREFVAAISASGGSTYYADSVKGRFTISRDNAKNTVYLQMNSLKPEDTAVYYCAASGYYRYYQYRYDYWGQGTQVTVSS :: high polyreactivity
QVQLVESGGGIVQAGGSLRLSCAASGRTFKWNAMGWYRQAPGKEREFVATISYSGGSTYYADSVKGRFTISRDIAKNSVYLQMKSLKPEDSAVYYCAAGSPYRFWHRFDYWGQGTQVTVSS :: high polyreactivity
QVQLVESGGGLVQAGGSLRLSCAASGRTFSYYAMGWSRQAPGKERELVAAMSWNGGSTYYADSVKGRFTISRDNAKNTVYFQMNSLKPEDTAVYYGAAAFYYYGDYDYWGQGTQVTVSS :: low polyreactivity

Now let's try a different one.
query: Please report the recorded polyreactivity (PSR sort gate) for QVQLVESGGGLVQAGGSLRLSCAASGNTFSGNAMGWYRQAPGKERELVAAISGSGASTYYADSVKGRFTISRDNAKNTVYLQMNSLKPEDTAVYYCAADKPGIFSRFDYWGQGTQVTVSS .
result: low polyreactivity
